Molecular target: Aurora Kinase 1 (Homo sapiens, UniProt Q96GD4)
Construct: endogenous in cells
Sequence (Q96GD4 whole entry): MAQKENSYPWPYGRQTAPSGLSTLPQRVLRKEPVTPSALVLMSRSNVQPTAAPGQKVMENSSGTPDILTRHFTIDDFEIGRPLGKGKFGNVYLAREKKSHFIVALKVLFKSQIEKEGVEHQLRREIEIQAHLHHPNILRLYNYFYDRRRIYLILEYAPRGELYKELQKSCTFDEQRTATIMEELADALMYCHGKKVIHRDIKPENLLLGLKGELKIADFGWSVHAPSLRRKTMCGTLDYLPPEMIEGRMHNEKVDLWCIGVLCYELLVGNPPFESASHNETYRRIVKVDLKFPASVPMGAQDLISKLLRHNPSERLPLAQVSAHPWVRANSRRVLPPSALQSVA
Assay: capture ELISA measuring Aurora Kinase 1 autophosphorylation in HT29 colon carcinoma cells
Details: HT29 cells synchronized for 24 hours, compound treatment 2 hours
pIC50: −log10 of the molar value.
metric.name: pIC50

1. CC(C)(C)NC(=O)c1cn2ncnc(N)c2c1-c1ccc(Nc2nc3cc(F)cc(F)c3[nH]2)cc1 [Example 72] = > 6.00
2. CNC(=O)c1cn2ncnc(N)c2c1-c1ccc(Nc2nc3ccc(Oc4ccccc4)c(F)c3[nH]2)cc1 [Example 102] = > 6.00
3. Nc1ncnn2cc(C(=O)NCC(F)(F)F)c(-c3ccc(Nc4nc5ccc(N6CCCC6)nc5[nH]4)cc3)c12 [Example 20] = > 6.00
4. Nc1ncnn2cc(C(=O)NCC(F)(F)F)c(-c3ccc(Nc4nc5ccc(OC(F)(F)F)cc5[nH]4)cc3)c12 [Example 31] = > 6.00
5. Nc1ncnn2cc(C(=O)NCC(F)(F)F)c(-c3ccc(Nc4nc5ccc(Oc6ccccc6)c(F)c5[nH]4)cc3)c12 [Example 32] = > 6.00

# ---- query compound ----
Input line: Lab note: need pIC50 for Nc1ncnn2cc(C(=O)NCC(F)(F)F)c(-c3ccc(Nc4nc5ccc(NC6CCC6)nc5[nH]4)cc3)c12 [Example 47] on Aurora Kinase 1 (Homo sapiens, UniProt Q96GD4), anyone have it?
Output line: > 6.00

Data origin, for the record: patent US8338594B2
